These measurements were taken from ChEMBL document CHEMBL1201862.

tested on: CCRF-CEM; assay: NCI tumour cell line growth inhibition, 48 h
The source made the active and inactive calls. Cut-off read from the data, not from the text of the source: active = GI50 up to about 1.1 µM and inactive = higher.
Possible outcomes: active, inactive

Compound	Classification
O=C1C=C(NCCc2ccc(O)cc2)C(=O)C=C1NCCc1ccc(O)cc1	inactive
O=S(=O)(/C=C/c1ccc(F)cc1)Cc1ccc(CS(=O)(=O)/C=C/c2ccc(F)cc2)cc1	inactive
COc1ccc2[nH]c3c(C)cc([N+](=O)[O-])c(C)c3c2c1	inactive
O=C(NC1CCN(Cc2ccccc2)CC1)c1ccccc1I	inactive
COc1ccc2c(c1)OCC1Cc3cc4c(cc3OC21)OCO4 (centres undefined)	inactive
Cc1cc(=O)c2ccccc2n1CCCCCCCCCCn1c(C)cc(=O)c2ccccc21	inactive
Cn1nc2c(c1N)Cc1c(nn(C)c1N)-c1ccccc1-2	inactive
CC1C2(C)OC(=N)C(C#N)(C(c3ccccc3)O2)C1(C#N)C#N (centres undefined)	inactive
O=C(c1ccc(Cl)cc1Cl)C1[C@H]2C(=O)N(c3ccc(Cc4ccc(N5C(=O)[C@@H]6ON(c7ccccc7)C(C(=O)c7ccc(Cl)cc7Cl)[C@@H]6C5=O)cc4)cc3)C(=O)[C@H]2ON1c1ccccc1 (some centres undefined)	inactive
CCN1CC(C)Cn2c(=O)[nH]c3cc(Br)cc1c32 (centres undefined)	inactive
Nc1nc(Cl)c(N)c(NCC2(CO)CCC2)n1	inactive
COc1cc(C2c3cc4c(cc3[C@@H](NC3CCN(Cc5ccccc5)CC3)C3COC(=O)[C@H]23)OCO4)cc(OC)c1O (some centres undefined)	active
COC(=O)CC1C[C@H](C#N)N(C(=O)c2ccccc2)C[C@@H]1CC[N+](=O)[O-] (some centres undefined)	inactive
CC12CCC[C@@](C)(C(=O)OC3OC(CO)C(O)C(O)C3O)[C@H]1CCC13CC4CC(OC4(CO)[C@H]1O)[C@@H]23 (some centres undefined)	inactive
Cc1c(/N=C/C=C/c2ccccc2)c(=O)n(-c2ccccc2)n1C	inactive
CC(=O)Oc1c(N2CCCCC2)c(C(=O)c2ccccc2)c(O)c2ccn(N(C)C)c12	inactive
C=C1[C@@H](OC(C)=O)/C=C/C2C3C(=O)[C@@](C)(OC(C)=O)[C@H]([C@H](OC(C)=O)[C@]4(O)[C@@H](C)C(=O)O[C@H]4[C@H]1Cl)[C@@]23C (some centres undefined)	inactive
COc1ccc(-c2cc(-c3ccncc3)nc(N)c2-c2ccc(F)cc2)cc1	inactive
N#Cc1nc(C(F)(F)F)oc1N	inactive
